testDescription: soluble on expression in E. coli; label from the status in PepcDB or PDB records
measurementLabel: soluble on expression in E. coli

A selection of reference data follows.
{"itemSequence": "MDYEIRQEQKRKIAGFHMVGPWEHTVKQGFEQLMTWVDRQRIVPVEWIAVYYDNPDVVPAEKLRCDTVVSVAENFILPDNSEGVIVTAIEGGEYATAVARVEDRDFAKPWERFFDVLEQDSAYQIASAPCFETYLNNGMEDGYWDIEMYIPVQRK", "reportedResult": "not soluble"}
{"itemSequence": "NHYLQAEVVTAFLGLQHAAKRADFNLQPASTYRDFNRQMLIWNAKFNGKRKIHNDASKQIDITTLTDLAKIKAILRWSAVPGASRHHWGTEIDIFDPDLLPQGQHLQLEPWEYQSNGYFAPLIKWLHQHSASFGFYFPFDGIQNSQ", "reportedResult": "not soluble"}
{"itemSequence": "MASYSEDQCSWRGSGLSQAVKNVEQVWLRCAEGSVEWLYPAGALRLTLSPRLPWSAMGPGESSRSPVSVCVKPDPHWGGAQLYLERDGVLELLVGDETSTTPGPAHVRCFSALPGERPALFLQATPHRDISRRIAAFRYELRGDWTAQPAVNTDPVSSEGACRPCNNTEILMAVCTSDFVVRGNIRSVGTDSNLNAAVIKVSATRVYRQKFALFPESGRLTRSGEIRTPLQCGVRPGAGSFLFTGRVHFGEAWLGCAPRYKDFLKAYEQAKQSLMIPCTLVND", "reportedResult": "not soluble"}
{"itemSequence": "LQQQEEETYADACDEFLDPIMSTLMCDPVVLPSSRVTVDRSTIARHLLSDQTDPFNRSPLTMDQIRPNTELKEKIQRWLAERKQQ", "reportedResult": "soluble"}

Q: Give me measured soluble on expression in E. coli, please, for this sequence: `MGSDKIHHHHHHMGLFNIFDVAGSGMSAQSLRLNTTASNIANADSVSSSIDKTYRSRHPIFEAEMAKAQSQQQASQGVAVKGIVESDKPLLKEYSPDHPMADGDGFIYKPNVNVMEEMADMISASRSYQMNVQVAEAAKSMLQQTLGMGK`
Ans: not soluble

Q: Check the records and state soluble on expression in E. coli for `MGSDKIHHHHHHMKSWPRPCSWACANPETKGRAYRTMSSSPTISPASDTFAAMTDDHRLAEFIREQASATRVVIQARKRLSGGAIQENWLLDLLIEGGPWAGVRRWVLRSDALSALPASLDREQEFAVLQVVYQAGVKVPRPLWLCRDVRVHGRVFFLMEYVPGSAAGRALSTGAGPQGRAQLATQLGANLARLHQVRPPCATLCFLSVPDSSPALATIDAYRRYLDTLADAYPVLEWGLRWCELHAPRSSTLCLLHRDYRTGNYLASEEGLEAVLDWEFTGWGDPCEDLGWFTARCWRFTRPDLEAGGIGQLEDFLRGYHEVSSLCIERSRLHYWQVMATLRWAVIALQQGQRHLSGEEPSLELALTARLLPELELDILHMTGAEAP`
Ans: not soluble

Q: Specify soluble on expression in E. coli for `ETTSSIGEKVWDDKDNQDGKRPEKVSVNLLANGEKVKTLDVTSETNWKYEFKDLPKYDEGKKIEYTVTEDHVKDYTTDINGTTITNKYTPGETSATVTKNWDDNNNQDGKRPTEIKVELYQDGKATGKTAILNESNNWTHTWTGLDEKAKGQQVKYTVEELTKVKGYTTHVDNNDMGNLITTNKYTPETTSSIGEKVWDDKDNQDGKRPEKVSVNLLANGEKVKTLDVTSETNWKYEFKDLPKYDEGKKIEYTVTEDHVKDYTTDINGTTITNKYTPGETSATVTKNWDDNNNQDGKRPTEIKVELYQDGKATGKTAILNESNNWTHTWTGLDEKAKGQQVKYTVEELTKVKGYTTHVDNNDMGNLITTNKYT` and stop.
Ans: soluble

Q: For the sequence `MIKLRMPAGGERYIDGKSVYKLYLMIKQHMNGKYDVIKYNWCMRVSDAAYQKRRDKYFFQKLSEKYKLKELALIFISNLVANQDAWIGDISDADALVFYREYIGRLKQIKFKFEEDIRNIYYFSKKVEVSAFKEIFEYNPKVQSSYIFKLLQSNIISFETFILLDSFLNIIDKHDEQTDNLVWNNYSIKLKAYRKILNIDSQKAKNVFIETVKSCKY` , report soluble on expression in E. coli.
Ans: soluble

Q: Quote soluble on expression in E. coli reported for `MGSDKIHHHHHHMKRFTLWNSYVAITESKEFVDWNKTKIIGSFKCPAFSYRSSTQIKADPFLFEYNNAIYLFYEEKYKNGKGYIVCTWTSDLKNWSQPVVVLKEPFHLSFPYVFKINDKIYMLPESNESNELRLYECVDFPYKWKLNKIIFDNGKYVDSSIICKGDIYYLFTTHKTENSFYHELYYCNDLLSDKWIKHPQSPISNNPKFARNGGSVFSHNNNLFRPAQDCSVSYGNNLSIFNVTHLSIDKYEETLVATNFFPKYKFKHGGHHFSHIEYKGQNIIAFDKKSREYAITPLFSSLYALICRLMKITSHK` please.
Ans: not soluble

Q: For `MDDHAFAAPAPAAPTAPALPMAVLAELTHRCPLQCPYCSNPVELEAASRELSTEDWQRVIGELAALGVLQIHFSGGEPLVRRDLVALVAHADRAGLYTNLITSAVMFTRAKVAELAEAGLAHVQVSLQGASAPVAERIGGFRGGHAKKIEAAAWVRAEGMALTLNAVMHRQNLDELPRIVEMAVEMGAQRLEVAHVQYYGWALKNRAALMPTLAQLDEATRIVEEAQARLSGVLAIDYVIPDYYAVRPKTCMGGWGRQFFNISPSGKVLPCHAAETITGLRFDSVREAPLAEIWQRSEALNLYRGTGWMQEPCRSCIHAEEDFGGCRCQAFALAGDAAATDPACAKSPLHAQLFSLAGAEAEAGADRFLYRNFSGGTPEG` , write its soluble on expression in E. coli.
Ans: not soluble

Q: Note soluble on expression in E. coli for the sequence shown: `MQLQPFSQACENNKVPILAVLKSAFANTTRVLEIGSGTGQHAVYFATNLPQLFWQTSDQAEYLEGIKARCLLQGHQLGINNLGFPITLDVTAPWPVNGTHIDAVFSANTLHIMSKSMVEAFFNGLGEYLPQLNTLCIYGPFNYQGHYTSDSNRQFDHFLKQRDSESGIRDIEWIIALAQAQGLTLVEDIAMPTNNRLLHFKHLLALEHHHHHH`
Ans: not soluble

Q: Report measured soluble on expression in E. coli; entry is `MGSDKIHHHHHHMLLDYDVALEDDFQQFIKQIPAPVRALLDSADPVARHQRQAVYTLFGIPGRPATMTPLVEALAMVSTLDTPSFAPTPTINDLALSKAHAYASQYLLQQFIRTVSHTTMLPPANRHELLTAAQSLPLANLNRLRLNFNQRERIADFLKDTKDRPAKLTSLSGYLATSLAGLDPAICGLARAIGESVGIVLTILTDVQVTRQIADFRERLLMGNYPLPLLFGFENDPGYFYDFFHQAHKPTADQFVATQQRVLMIGVAPALTMANELVDQARLDSQQLPTDLKKRVEQALTRLAAATAQPH`
Ans: not soluble
